Each item that follows carries a reported IC50.
# system: Proteasome subunit beta type-8 (Homo sapiens)
# Sequence (P28062 whole entry): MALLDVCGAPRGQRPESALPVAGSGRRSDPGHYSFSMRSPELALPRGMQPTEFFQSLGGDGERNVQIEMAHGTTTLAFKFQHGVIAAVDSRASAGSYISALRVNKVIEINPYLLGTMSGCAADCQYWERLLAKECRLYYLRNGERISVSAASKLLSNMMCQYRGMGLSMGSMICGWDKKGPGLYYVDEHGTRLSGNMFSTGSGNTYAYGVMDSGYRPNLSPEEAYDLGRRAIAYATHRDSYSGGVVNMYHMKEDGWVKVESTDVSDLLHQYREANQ
# test.method.notes: IC50 Determination
experimental.endpoint: IC50 (µM)

molecule	experimental.endpoint	endpoint.unit	numeric.value
O=C1CCc2cccc(c2)OCCCC[C@@H](C(=O)NCc2ccccc2F)NC(=O)[C@H](CC(=O)N2CCC[C@@H]2c2ccccc2)N1	IC50	µM	3
O=C(NC1Cc2cccc(c2)Oc2ccc(cc2)CC(C(=O)NCc2ccccc2F)NC(=O)C(CC(=O)N2CCC[C@@H]2c2ccccc2)NC1=O)c1ccccc1 (stereo partly specified)	IC50	µM	26.8
CC(=O)NC1Cc2cccc(c2)Oc2ccc(cc2)CC(C(=O)NCc2ccccc2F)NC(=O)C(CC(=O)N2CCC[C@@H]2c2ccccc2)NC1=O (stereo partly specified)	IC50	µM	35.9
O=C1N[C@@H](CC(=O)N2CCCC2)C(=O)N[C@H](C(=O)NCc2cccc3ccccc23)CCCCCCCCC[C@H]1Cc1ccccc1	IC50	µM	3.52
O=C(N[C@H]1Cc2cccc(c2)Oc2ccc(cc2)C[C@@H](C(=O)NCc2ccccc2F)NC(=O)[C@H](CC(=O)N2CCC[C@@H]2c2ccccc2)NC1=O)c1ccccc1	IC50	µM	19.3
CC(=O)N[C@H]1Cc2cccc(c2)Oc2ccc(cc2)C[C@@H](C(=O)NCc2ccccc2F)NC(=O)[C@H](CC(=O)N2CCC[C@@H]2c2ccccc2)NC1=O	IC50	µM	9.1

###

# system: Proteasome subunit beta type-5 (Homo sapiens, UniProt P28074)
# Sequence (P28074 whole entry): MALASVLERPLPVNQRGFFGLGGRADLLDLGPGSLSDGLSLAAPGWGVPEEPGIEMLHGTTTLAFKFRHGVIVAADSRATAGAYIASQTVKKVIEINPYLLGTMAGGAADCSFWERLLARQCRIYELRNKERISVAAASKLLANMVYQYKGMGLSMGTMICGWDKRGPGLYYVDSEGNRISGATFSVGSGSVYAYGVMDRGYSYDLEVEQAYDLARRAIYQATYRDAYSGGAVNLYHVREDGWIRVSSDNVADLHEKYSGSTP
# test.method.notes: IC50 Determination
pIC50: −log10 of the molar value.

compound	relation.qualifier	pIC50
O=C1CCc2cccc(c2)OCCCC[C@@H](C(=O)NCc2ccccc2F)NC(=O)[C@H](CC(=O)N2CCC[C@@H]2c2ccccc2)N1	=	4.35
CC(=O)NC1Cc2cccc(c2)Oc2ccc(cc2)CC(C(=O)NCc2ccccc2F)NC(=O)C(CC(=O)N2CCC[C@@H]2c2ccccc2)NC1=O (stereo not given in full)	=	4.05
CC(=O)N[C@H]1Cc2cccc(c2)Oc2ccc(cc2)C[C@@H](C(=O)NCc2ccccc2F)NC(=O)[C@H](CC(=O)N2CCC[C@@H]2c2ccccc2)NC1=O	=	4.51
CC(=O)N[C@H]1CCCCOc2cccc(c2)C[C@@H](C(=O)NCC(F)(F)F)NC(=O)[C@H](CCc2ccccc2)NC1=O	=	4.92
O=C(NC1Cc2cccc(c2)Oc2ccc(cc2)CC(C(=O)NCc2ccccc2F)NC(=O)C(CC(=O)N2CCC[C@@H]2c2ccccc2)NC1=O)c1ccccc1 (stereo not given in full)	<	4.00
